# Test system: Wild type
# test description: S. aureus survival, RN4220 and DeltatarO strains – OD600, teichoic acid synthesis inhibitors, primary screen (AID 463173)
# assay conditions: S. aureus RN4220 wild type/DeltatarO growth, OD600, 18 h, active compounds read low, screened at 18.75 µg/mL (by protocol)
Screen size: about 52,000 compounds; about 1,700 (3.3%) were called active. This is one part of a sample in which actives are shown more often than they occur.
property measured: survival (%)
Value expressed in %; do not type the unit.

Some solved entries appear below for comparison.
Request body: readout survival, system Wild type, query CCOC(=O)C(C)Sc1nc(-c2ccccc2Cl)cc(-c2ccccc2)c1C#N (stereo not drawn) . Return the value. 79

What do you get for `O=S1(=O)c2ccccc2N(Cc2ccccc2Cl)c2ccccc21` ? 80

Let's switch to this molecule now.
Request body: readout survival, system Wild type, query `CCOc1ccc(-n2c(SCc3ccc(C(=O)OC)o3)nc3c([nH]c4ccccc43)c2=O)cc1` . Return the value. 82

====

# Test system: Wild type
# test description: S. aureus survival, RN4220 and DeltatarO strains – OD600, teichoic acid synthesis inhibitors, primary screen (AID 463173)
# assay conditions: S. aureus RN4220 wild type/DeltatarO growth, OD600, 18 h, screened at 18.75 µg/mL (by protocol)
Out of some 52,000 compounds screened, about 1,700 (3.3%) were called active. Rule as the data show it: active = survival mostly below about 52% (no sharp cut-off); inactive = mostly above about 56%. This excerpt belongs to a sample that is enriched for actives.
Outcome field: choose from active, inactive

Write down the call the test reported for this molecule. Item: `COc1ccc(NS(=O)(=O)c2ccc3[nH]c4c(c3c2)CCCCC4)cc1` inactive

What do you get for `O=C1CC(=O)SC(c2ccccc2)=N1` ? inactive

What do you get for `CCOC(=O)c1c(Oc2ccc(OC)cc2)nnc(-c2ccccc2)c1-c1ccccc1` ? inactive

What do you get for `O=C(Cn1c2ncccc2c(=O)n1-c1ccccc1)NCc1ccccc1` ? inactive

What do you get for CCN(CC)S(=O)(=O)c1ccc2c(c1)N(CC(=O)NCc1ccccc1)C(=O)C1CCCCN21 (stereo unspecified) ? inactive

What do you get for `CCc1ccc(NC(=O)CN2CCSc3ccc(S(=O)(=O)N4CCCC4)cc32)cc1` ? active

What do you get for `Cc1ccc(CNc2cc(C)nc3nc(-c4ccc(C)cc4)nn23)cc1` ? inactive

What do you get for `Cc1ccc(C)c(N2CCN(CCCNC(=O)c3ccc4nc(N5CCC(C)CC5)sc4c3)CC2)c1` ? active

What do you get for `CCOC(=O)c1c(Nc2ccc(OCC)cc2)nnc(-c2ccccc2)c1-c1ccccc1` ? active

What do you get for `CC(=O)c1[nH]c(C)c(C(=O)NCCc2ccc(C)cc2)c1C` ? inactive

What do you get for `Cc1ccc(NS(=O)(=O)c2ccc3[nH]c4c(c3c2)CCCCCC4)cc1` ? inactive

What do you get for `Cc1cccc(N2CCN(C(=O)c3ccc4nc(N5CCC(C)CC5)sc4c3)CC2)c1C` ? active

What do you get for `COc1cccc(C(=O)Nc2cc3c(cc2C(=O)c2ccc(C)cc2)OCCO3)c1` ? inactive

What do you get for `COc1ccc(NC(=O)Nc2nnc(N(CC(C)C)CC(C)C)s2)c(OC)c1` ? inactive

What do you get for `CCc1c(C)nc2nc(-c3ccccc3)nn2c1NCc1ccc(C)cc1` ? active

====

Entries and their survival
# Tested on: Wild type
# test description: S. aureus survival, RN4220 and DeltatarO strains – OD600, teichoic acid synthesis inhibitors, primary screen (AID 463173)
# assay conditions: S. aureus RN4220 wild type/DeltatarO growth, OD600, 18 h, active compounds read low, screened at 18.75 µg/mL (by protocol)
Among all 52,000 compounds or so, about 1,700 (3.3%) were called active. Only a selection was taken, and actives are over-represented in it overall.
Value expressed in %; do not type the unit.

Field request: survival | item: `Cc1cccn2c(=O)cc(CSc3nnc(NC(=O)COc4ccccc4)s3)nc12` 71

What do you get for `CCOC(=O)c1ccc(N2CCN(c3ccccc3OC)CC2)c(NC(=O)Nc2ccc(CC)cc2)c1` ? 80

What do you get for `CN1C(N)=NC(=O)C1(CO)CO` ? 104

Let's switch to this molecule now.
Field request: survival | item: `CC(C)C(=O)Nc1nnc(SCc2cc(=O)n3ccccc3n2)s1` 117
